Target: Full-length PRMT5 enzyme co-expressed with MEP50 (Homo sapiens (Human), UniProt O14744)
Sequence (O14744 whole entry): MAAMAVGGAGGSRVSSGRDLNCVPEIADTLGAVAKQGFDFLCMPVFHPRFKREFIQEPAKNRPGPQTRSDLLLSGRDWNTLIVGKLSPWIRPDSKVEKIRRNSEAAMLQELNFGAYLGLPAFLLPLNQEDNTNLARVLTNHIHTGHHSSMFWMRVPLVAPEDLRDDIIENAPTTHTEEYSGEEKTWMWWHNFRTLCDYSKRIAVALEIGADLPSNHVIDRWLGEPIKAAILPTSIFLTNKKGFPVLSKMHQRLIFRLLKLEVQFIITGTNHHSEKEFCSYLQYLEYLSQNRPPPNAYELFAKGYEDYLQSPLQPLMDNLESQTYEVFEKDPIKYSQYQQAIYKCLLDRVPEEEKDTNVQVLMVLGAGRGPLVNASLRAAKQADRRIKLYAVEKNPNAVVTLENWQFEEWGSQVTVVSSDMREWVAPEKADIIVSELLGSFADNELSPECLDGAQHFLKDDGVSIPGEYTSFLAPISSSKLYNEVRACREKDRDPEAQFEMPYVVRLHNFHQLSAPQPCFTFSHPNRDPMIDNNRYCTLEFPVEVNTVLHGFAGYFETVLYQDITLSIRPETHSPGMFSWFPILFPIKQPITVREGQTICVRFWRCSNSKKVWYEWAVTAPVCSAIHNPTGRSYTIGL
Sequence (Q9BQA1 whole entry partner): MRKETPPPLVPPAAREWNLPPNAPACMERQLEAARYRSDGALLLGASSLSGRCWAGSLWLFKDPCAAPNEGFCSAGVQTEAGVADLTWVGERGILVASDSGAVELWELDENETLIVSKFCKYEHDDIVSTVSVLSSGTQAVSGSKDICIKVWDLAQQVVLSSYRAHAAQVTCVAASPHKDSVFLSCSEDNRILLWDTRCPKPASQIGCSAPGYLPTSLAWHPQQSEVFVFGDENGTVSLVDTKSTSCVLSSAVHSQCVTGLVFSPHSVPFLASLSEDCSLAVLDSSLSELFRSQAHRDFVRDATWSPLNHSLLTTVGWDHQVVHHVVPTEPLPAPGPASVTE
Assay: Revised PRMT5 Biochemical Assay
Conditions: 1 μM histone H4 derived peptide substrate, 1 μM S-Adenosyl methionine, 4 hours at 37 degree Celsius, Transcreener EPIGEN fluorescence polarisation
pIC50: −log10 of the molar value. Structures can show the parent of a compound that is named as a salt.
measured attribute: pIC50

molecule | pIC50
O=C(NC[C@@H](O)CNC1Cc2ccccc2C1)c1cccc2scnc12 | 5.17
COc1cc(C(=O)N2C3CCC2COC3)ccc1C(=O)NC[C@@H](O)CNC1Cc2ccccc2C1 [Compound 134, hydrochloride] | 6.62
O=C(NC[C@@H](O)CNC1Cc2ccccc2C1)c1cccc(OC(F)F)c1 | 5.29
CC1(C)CN(C(=O)c2ccc(C(=O)NC[C@@H](O)CNC3Cc4ccccc4C3)cc2)CCO1 | 6.47
O=C(NCC(O)CNC1Cc2ccccc2C1)c1ccnc(-n2cccn2)c1 (centres unmarked) | 4.60
O=C(NC[C@@H](O)CNC1Cc2ccccc2C1)c1ccc(CC(=O)N2CCCC2)cc1 | 5.96
CN(C[C@@H](O)CNC1Cc2ccccc2C1)C(=O)c1ccc(C(=O)N2CCOCC2)cc1 | 4.98
O=C(NC[C@@H](O)CNC1Cc2ccccc2C1)c1cccc(C(F)F)c1 | 4.77
O=C(NC[C@@H](O)CNC1Cc2ccccc2C1)c1cccc2cn[nH]c12 | 4.53
O=C(NC[C@H](O)CNC1Cc2ccccc2C1)c1ccc(C(=O)N2CCCCC2)nc1 | 5.00

(1) CC(=O)N1CCC(Nc2cc(C(=O)NCC(O)CNC3Cc4ccccc4C3)ccn2)CC1 (centres unmarked)
(2) CC(=O)N1CCC(Nc2ccc(C(=O)NCC(O)CNC3Cc4ccccc4C3)cc2)CC1 (centres unmarked)
**Query** Lower value for measured pIC50? Options: 1 , 2 Indicate your choice by writing its label.
**Result** 2

(a) O=C(NCC(O)CNC1Cc2ccccc2C1)c1ccnc(OC2CCNCC2)c1 (centres unmarked)
(b) CC[C@H]1COCCN1C(=O)c1ccc(C(=O)NC[C@@H](O)CNC2Cc3ccccc3C2)cc1
**Query** Lower value for measured pIC50? Options: a , b Indicate your choice by writing its label.
**Result** a
(a: 6.15, b: 6.80)

(1) O=C(NC[C@@H](O)CNC1Cc2ccccc2C1)c1ccc(C(=O)N2CCCCC2)nc1
(2) O=C(NC[C@@H](O)CNC1Cc2ccccc2C1)c1ccc(CC(=O)N2CCOCC2)cc1
**Query** Thinking about recorded pIC50 values, which is higher, 1 or 2 ? Indicate your choice by writing its label.
**Result** 2
(2: 5.50, 1: 5.21)

The origin of these recorded values is patent US10005792B2.
